Tested on: VDR homodimer (NR concentration 270 nM)
Assay: PBM binding z-score (relative to random genomic background probes); higher = stronger binding; sequences stand for … in GC…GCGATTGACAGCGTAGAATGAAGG

| sequence-content | PBM binding z-score |
| --- | --- |
| CGAACTAGGTCGTCCAGGACAGTGAATACATTGA | 0.591 |
| ATATGTAGGTTAGGGGTCATTCAGGTTGGTTCGC | 6.78 |
| TATACAAGGTCAAAGGCCAGAGTACGAATGTCGA | 2.78 |
| CCTGCTAGGTCATGGTCAGCGAATCTACAGTATG | 0.226 |
| GGAACGAGGTCAAAGTTGATAGCATCTGTCGACG | 4.79 |
| ATCTCTAGGTTAAGATAGTTCAGTGAATGCAAAT | 0.933 |
| GCTTAAGGGTCAAAGGTTATAGCATGAATAGAAT | 2.8 |
| CGAACTAGGTCAAGGCCAGTGAATCTCCGCACGC | 0.111 |
| CGTCCAAGGTCACGGTCAGTGAAAGAGACTCGAA | 2.8 |
| CAAACAAGGTCACAGAGGTCAAAGTCCGTGCGTA | 9.97 |
| GCATATAGGTAATACAAGGTCAAAGTCCGATTGT | 2.68 |
| TATTCAGGGTCAAAGGCCAGAGTACGAATGTCGA | 3.62 |
| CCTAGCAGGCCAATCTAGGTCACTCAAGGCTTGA | 0.1 |
| AATACGGGGTCATCGTAGGCCAGAGTACGCACAG | 6.13 |
| CCGACGGGGGCAAAGGTTACCATACTCAGTACGA | 2.92 |
| TATAAAGGGTCAAAGGCCAGAGTACGAATGTCGA | 2.46 |

###

The following sequences are shown together with reported PBM binding z-score values.
Tested on: PXR:RXRa (NR concentration 270 nM, RXRa partner concentration 90 nM)
Test: PBM binding z-score (relative to random genomic background probes); higher = stronger binding; sequences stand for … in GC…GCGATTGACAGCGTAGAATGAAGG
quantity: PBM binding z-score

| sequence-content | endpoint-value |
| --- | --- |
| CCTACTGGTCCAAGGTCATTGATCAGTCAAAGCA | 4.18 |
| TCTAGTCGGTCAAAGGTCACACACTCGAAATGCG | 6.26 |
| TCTTGTAGGTCAATAGAGGTTAAGAAAGTGCGCT | 5.67 |
| CTCGAAAGGTCGTGCTCAGATGAGTATACCAAAC | 2.96 |
| GCTGCTAGGTCAACTGATGGTCATCTAAAGCTCG | 2.17 |
| CGTTCAAGGTCAAAGGTCAGTGAAGAGATGACGG | 7.19 |
| TCTATTAGTTGATTAGGGCAACCGAAACAGCGGA | 0.609 |
| ATATGTAGGTTAAGCGTCATTCAGGTTGGTTCGC | 0.685 |
| AGAATGAGGTTACTAAAGATCAGGGAAACGCTTG | 0.942 |
| GTTACAGGGTCAAGGCCAGAGTACGCGTATTGAT | 3.92 |
| ATATGTAGGATAGCTGGGGTCATTCAGACTAGGC | 5.76 |
| CGTCAAAGGTCAAAGGTCAGTGAAGAGATGACGG | 7.37 |
| ATCGAAAGGTCGAAGGTGCGTATACCCACCCGAA | 2.17 |
| GCTGCTAGTTCAACTGATGGTCAGCTAAAGCTCG | 0.398 |
| AATACAGGGTCACGAGGCCAGAGTAGGTACGAAT | 4.43 |
| ATCAAAAGGTCGAGGTGAGTATAGAGAAAGGGAA | 2.86 |
| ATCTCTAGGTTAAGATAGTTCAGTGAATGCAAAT | 3.05 |
| TTACCAAGGTCAAGGTCGTTGATCCCTCTGTAGA | 5.31 |
| CCTTACGGGTCACTGACAGGTTATAGCGTTTGGA | 3.48 |
| AATACAGGGTAACTAGGCCAGAGTAGGTACGAAT | -0.078 |
| GCTAGTTGGTCAGTAAAAGGTGACACACCGGTCG | 0.431 |
| CATACAGGGTCGGCTAGGCCAGAGTAGGGACGGC | -0.0911 |
| ATATGTAGGTTAGCTGAGGTCATTCAGACTAGGC | 6.68 |
| CAAACTAGTTCAAGAGGTCAAAGTCCGCTTCCCG | 5.97 |
| CGTCCAAGGTTAAGGTCAGTGAAAGAGACTCGAA | 2.73 |
| ATCGAAAGGTCATGAGGTGAGTATACAGAAAGGC | 5.71 |
| CCTACTGGGCCGTTCAGAGGTCATTGATCATATG | 4.75 |
| TAGCCTAGGTCACATCGGGCCAGTATACGCTATA | 2.26 |
| TCTCGGAGGACACTAAAGGTCAGAGCTCGACATC | 3.8 |
| CGTCAAAGTCCAAGGTAACGTAACAGAAAGCAGC | -0.079 |
| ATATGTAGGTTAGCTGGGGTCATTCACACTAGGC | 6.36 |
| TATACAGGGTCAAAGGCCAAAGTACGAATGTCGA | 5.05 |
| TGTCAACGTTCAAAGGTAACGTAAGTATCCACAC | 0.578 |
| AGTCAAACTTCAGGACGAGGTAACGTAAAGCACG | -0.409 |
| TGAATGAGGTTAAATATCAGGGAACGTGGCGTCG | 1.35 |
| CTATGTGGGTTAAGGGGGTCATTCAGTTTGAAAG | 6.07 |
| CGCACTAGGTCATCCAGGACAGTGAATACATTGA | 1.97 |
| CCGAGTTGGTCAAGGTCACACACGCTATAGGTAC | 4.94 |
| CGAACGAGGTCACCAGGACAGTGAAGAGGTTGGA | 5.37 |
| TAGCCTAGGTCATGCGGGCCAATATAGTGTCGGC | 1.64 |
| TAGCCTAGGTCATTCAGGGGCAAGTATAGAAAGC | 5.54 |
| CCTTACGGGTCAAGGTTATAGCCCGGGTGGTACG | 3.43 |
| TCTTGTAGATCAATAGAAGTTAAGAAAGTGCGCT | 0.615 |
| TCTCGGAGGAAACGAAAGGTCAGAGCTCGACATC | 3.7 |
| ATCGAAAGGTCGAAGGTGAGCATACCCACCCGAA | 3.16 |
| CGTCAAAGGTCAGAGAGGTCAGTGAATGCCGAGT | 6.7 |
| TAGCCTAGGTTATGGGCCAGTATACCACGCGAAC | -0.0911 |
| CCTTAAGGGTCACGAGGTTATAGCACGACGAGCG | 5.46 |
| TAGCCTAGGGCATTCAGGGGCCAGTATAGAAAGC | -0.0151 |
| GATACAGGGTCGGCTAGAGGCCAGAGTATGGAAA | 0.712 |
| CCTAGTTGGTCAAGGTCACATACGCTATAGGTAC | 4.1 |

###

System: LXRa homodimer (NR concentration 270 nM)
Assay: PBM binding z-score (relative to random genomic background probes); higher = stronger binding; sequences stand for … in GC…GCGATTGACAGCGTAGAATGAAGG
The following sequences are shown together with reported PBM binding z-score values.
quantity: PBM binding z-score

| sequence-content | experimental-system | endpoint-value |
| --- | --- | --- |
| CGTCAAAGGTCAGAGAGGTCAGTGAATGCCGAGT | LXRa homodimer (NR concentration 270 nM) | 4.99 |
| CTATGTAGGTCAAGGGGGTCATTCAGTTTGAAAG | LXRa homodimer (NR concentration 270 nM) | 4.49 |
| CCTACTGGGCCATTCAGAGGGCATTGATCATATG | LXRa homodimer (NR concentration 270 nM) | 0.468 |
| AGAATGAGGTCAAGATCAGGGAAACAGAATACAT | LXRa homodimer (NR concentration 270 nM) | 0.974 |
| CGTCAAAGGTCAAGGTAACGTAACAGAAAGCAGC | LXRa homodimer (NR concentration 270 nM) | 2.47 |
| TCTGCTAGGTCAACGATGGTCAGTTAATCTGCTA | LXRa homodimer (NR concentration 270 nM) | -0.279 |
| CGTCCGAGGTCATAGGAGGTCAGTGAAGACAGAT | LXRa homodimer (NR concentration 270 nM) | 5.54 |
| ATATGTAGGTTATCTGGGGTCATTCAGACTAGGC | LXRa homodimer (NR concentration 270 nM) | 8.86 |
| ATCGAAAGGTCAACGAGGTGAGTATACACCGTTT | LXRa homodimer (NR concentration 270 nM) | 4.35 |
| CCTACTGGGCCACTAAAGGTCATTGATTCAGTGA | LXRa homodimer (NR concentration 270 nM) | 8.29 |
| CGTCCAAGGTCATTGGAGGTCAGTGAAGACAGAT | LXRa homodimer (NR concentration 270 nM) | 6.77 |
| CCTACTGGGCCAAAGGTGATTGATTCCAATGCTC | LXRa homodimer (NR concentration 270 nM) | -0.216 |

Every entry's value here was drawn from the supplement of paper PMC6555819.
